test: AUC in Sprague-Dawley rat at 10 mg/kg, po; type: ADME, organism-based; parameters: dose 10 mg/kg, route oral; conditions: plasma
recorded_metric: AUC (ng·h/mL)

Sample records with AUC:
INSERT INTO results (molecule, reading_unit, experimental_result) VALUES
  ('CCCCCCCCN1CCc2c(C)cc(C)c(NC(=O)C(C)(C)C)c21', 'ng·h/mL', 200),
  ('CCCCCCCCN1CCc2c(C)cc(C)c(NC(=O)C(C)(C)CCC(=O)O)c21', 'ng·h/mL', 5000);

a. CCCCCCCCN1CCc2c(C)c(Cc3nnn[nH]3)c(C)c(NC(=O)C(C)(C)C)c21
b. Cc1cc(C)c(NC(=O)C(C)(C)C)c2c1CCN2CCCCCCCCCC(=O)O
**Q:** Consider a and b . Which of these has its AUC at a higher number? Returns: label corresponding to the selected item.
**A:** a
